Consider the following binders and their measured INS/control readings.
# Study target: T1, SARS-CoV-2 C14S,C23S,C73S NSP9 (triSer-NSP9) (SARS-CoV-2, UniProt P0DTC1 4141-4253)
# T1 construct: also called NSP (dissolved in ammonium acetate); INS (dissolved in DMSO and diluted in PBS)
# T1 chain: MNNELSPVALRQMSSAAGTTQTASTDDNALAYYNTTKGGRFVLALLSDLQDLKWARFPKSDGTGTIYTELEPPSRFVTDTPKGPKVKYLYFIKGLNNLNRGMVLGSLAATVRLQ
# Measurement notes: ELISA signal on INS over uncoated blocked well
Just the number, please.

>>> reported_value("3NSP78 (VHH) VHH: QVQLQESGGGLVQAGGSLRLSCAASGRAFSSYVMGWFRQAPGKEREFVAAIHWTGAATVYVDSVKGRFAISRHNAKNTVYLEMNSLKPEDTAVYYCAADPSGSYWPPKRYDYWGQGTQVTVSS")
28.6
>>> reported_value("2INS45 (VHH) VHH: QVQLQESGGGLVQAGGSLRLSCAASGFTLSSNDMGWYRQAPGKQRELVATITSGLSTNYADSVKGRFTISRDNAKNTVFLQMNSLKIEDTAVYYCEVERGWGPPRDYWGHGTQVTVSS")
26.9
>>> reported_value("2INS64 (VHH) VHH: QVQLQESGGGLVQVGGSLRLSCAASGSILSINAMGWYRQAPGKQRELVAAITSGGSTNYADSVKGRFTISRDNAKNMLYLQMNSLKPEDTAVYYCHVVTGWGPLDWGQGTQVTVSS")
26.7
>>> reported_value("3NSP56 (VHH) VHH: QVQLQESGGGLVQAGGSLRLSCAASGRTFSRYAMGWFRQAPGKERESVAAINWSGTSIFYANSVEGRFTISRDNAKNTVYLQLNSLKPEDTAVYYCAADLVRNYRLGWGDGVYDHYGQGTQVTVSS")
2.61
>>> reported_value("3NSP29 (VHH) VHH: QVQLQESGGGLVQAGGSLRLSCAASGRTFSRYAMGWFRQAPGKERESVAAINWSGTSIFYANSVEGRFTISRDNAKNTVYLQLNSLKPEDTAVYYCGVVLNGMPYWGRGTQVTVSS")
1.84

# context switch: different binder, same INS/control
Q) Fill in the blank: the reported INS/control of 2INS69 (VHH) VHH: QVQLQESGGGLVRAGDSLRLSCAVSGRTFSSVAMGWFRQAPGKEREFVAFISGSTGSVTYYADSVKGRFAISRDNAKNTVYLQMNSLKPEDTAVYDCAAKFTGTFNYQGLYDYWGQGTQVTVSS is ____.
A) 14.1
